The origin of these recorded values is patent US20220323406A1.

test system: ENR+CD organoids; assay: Primary screen: ATP (CellTiter-Glo 3D, CTG) cell number/viability, 2.5-D 384-well ENR+CD organoids; conditions: primary screen, dose 10.00 uM;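 note: compounds given at plating and again on day 3 over a 6-day differentiation from ENR+CV stem-cell-enriched precursors, ATP measured on day 6, plate median as control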
Where a name gives a salt, the structure may show the parent alone.
Overview of reported Dose.FC.CTG across a group of molecules:

# count of solved cases: 3
- molecule: "CN1CCc2cc3c(cc2[C@H]1[C@@H]1OC(=O)c2c1ccc1c2OCO1)OCO3 [(+)-Bicuculline]"
  targetOfAssay: "ENR+CD organoids"
  dataValue: "−0.132 log2 fold change"
- molecule: "CNC(=O)c1cc(Oc2ccc(NC(=O)Nc3cc(C(C)(C)C)nn3-c3ccc4ncccc4c3)c(F)c2)ccn1 [DCC-2036 (Rebastinib)]"
  targetOfAssay: "ENR+CD organoids"
  dataValue: "−0.322 log2 fold change"
- molecule: "CC(C)NCC(O)COc1ccc(COCCOC(C)C)cc1 (stereo not shown) [Bisoprolol fumarate]"
  targetOfAssay: "ENR+CD organoids"
  dataValue: "0.058 log2 fold change"

# evaluate next
### Prompt Query (molecule): CCOC(=O)N1c2ccc(C(F)(F)F)cc2[C@@H](N(Cc2cc(C(F)(F)F)cc(C(F)(F)F)c2)C(=O)OC)C[C@H]1CC [Torcetrapib] ; field requested: Dose.FC.CTG
### Response −0.151 log2 fold change
